Reported MBC90 is given for each of the following compounds.
# Test system: Mycobacterium tuberculosis
# Protocol: Bactericidal activity against Mycobacterium tuberculosis H37Rv ATCC 27294 after 5 days by spectrophotometry
# Type: functional
Remember to follow the number with its unit.

Recorded results for 5 compounds are shown here.
O=C(CCSc1nnc(-c2ccncc2)s1)Nc1ccccc1Cl ... 2.5 µM
CC(CSc1nnc(-c2ccncc2)s1)C(=O)Nc1ccc(Cl)cc1 (stereo not given) ... 1.25 µM
O=C(CCSc1nnc(-c2ccncc2)s1)NCc1ccccc1Cl ... 2.5 µM
CC(CSc1nnc(-c2ccncc2)s1)C(=O)NCc1ccccc1Cl (stereo not given) ... 5 µM
O=C(CSc1nnc(-c2ccncc2)s1)NCc1ccccc1 ... 1.25 µM

Entry under test: CC(CSc1nnc(-c2ccncc2)s1)C(=O)NCc1ccccc1 (stereo not given) . Its MBC90 was 5 µM

Entry under test: CC(Sc1nnc(-c2ccncc2)s1)C(=O)Nc1c(Cl)cccc1Cl (stereo not given) . Its MBC90 was 5 µM

Entry under test: CC(Sc1nnc(-c2ccncc2)s1)C(=O)NCc1ccccc1Cl (stereo not given) . Its MBC90 was 5 µM

Entry under test: O=C(CSc1nnc(-c2ccncc2)s1)Nc1ccccc1 . Its MBC90 was 1.25 µM

###

# Protocol: Cytotoxicity against hamster BHK21 cells after 3 days
# Type: cell-based, Mesocricetus auratus, BHK-21
Reported CC50 at 72 h is given for each of the following compounds.

Entry under test: CC(CSc1nnc(-c2ccncc2)s1)C(=O)NCc1ccccc1Cl (stereo unspecified) . Its CC50 at 72 h was > 50 µM

Entry under test: O=C(CSc1nnc(-c2ccncc2)s1)Nc1ccccc1 . Its CC50 at 72 h was 16.2 µM

Entry under test: O=C(CCSc1nnc(-c2ccncc2)s1)NCc1ccccc1Cl . Its CC50 at 72 h was > 50 µM

Entry under test: O=C(CCSc1nnc(-c2ccncc2)s1)Nc1ccc(Cl)cc1Cl . Its CC50 at 72 h was > 50 µM

Entry under test: O=C(CSc1nnc(-c2ccncc2)s1)NCc1ccccc1 . Its CC50 at 72 h was 11.3 µM

Entry under test: CC(CSc1nnc(-c2ccncc2)s1)C(=O)Nc1c(Cl)cccc1Cl (stereo unspecified) . Its CC50 at 72 h was > 50 µM

Entry under test: CC(CSc1nnc(-c2ccncc2)s1)C(=O)Nc1ccccc1 (stereo unspecified) . Its CC50 at 72 h was > 50 µM

Entry under test: O=C(CCSc1nnc(-c2ccncc2)s1)Nc1ccccc1 . Its CC50 at 72 h was > 50 µM

Entry under test: CC(Sc1nnc(-c2ccncc2)s1)C(=O)Nc1ccc(Cl)cc1Cl (stereo unspecified) . Its CC50 at 72 h was > 50 µM

Entry under test: CC(Sc1nnc(-c2ccncc2)s1)C(=O)Nc1c(Cl)cccc1Cl (stereo unspecified) . Its CC50 at 72 h was > 50 µM

Entry under test: O=C(CSc1nnc(-c2ccncc2)s1)NCc1ccc(Cl)cc1 . Its CC50 at 72 h was > 50 µM

###

# Protocol: Cytotoxicity against hamster BHK21 cells after 3 days
# Assay type: cell-based, Mesocricetus auratus, BHK-21
Observation type: CC50 at 72 h

Recorded results for 5 molecules are shown here.
O=C(CSc1nnc(-c2ccncc2)s1)Nc1ccccc1Cl ... > 50 µM
CC(Sc1nnc(-c2ccncc2)s1)C(=O)Nc1ccc(Cl)cc1 (stereo unspecified) ... > 50 µM
S=c1[nH]nc(-c2ccncc2)s1 ... 14.7 µM
CC(Sc1nnc(-c2ccncc2)s1)C(=O)Nc1ccccc1Cl (stereo unspecified) ... > 50 µM
CC(CSc1nnc(-c2ccncc2)s1)C(=O)Nc1ccc(Cl)cc1 (stereo unspecified) ... > 50 µM

Shifting focus to the molecule that follows.
Entry under test: CC(CSc1nnc(-c2ccncc2)s1)C(=O)Nc1ccccc1Cl (stereo unspecified) . Its CC50 at 72 h was > 50 µM

###

Reported CC50 at 72 h is given for each of the following compounds.
# Protocol: Cytotoxicity against human HepG2 cells after 3 days
# Assay type: cell-based

Recorded results for 6 compounds are shown here.
CC(Sc1nnc(-c2ccncc2)s1)C(=O)NCc1ccccc1Cl (centres undefined) ... > 50 µM
CC(CSc1nnc(-c2ccncc2)s1)C(=O)Nc1ccc(Cl)cc1 (centres undefined) ... > 50 µM
CC(Sc1nnc(-c2ccncc2)s1)C(=O)NCc1ccccc1 (centres undefined) ... > 50 µM
O=C(CCSc1nnc(-c2ccncc2)s1)NCc1ccccc1Cl ... > 50 µM
O=C(CSc1nnc(-c2ccncc2)s1)NCc1ccc(Cl)cc1 ... > 50 µM
CC(Sc1nnc(-c2ccncc2)s1)C(=O)Nc1c(Cl)cccc1Cl (centres undefined) ... > 50 µM

Entry under test: CC(Sc1nnc(-c2ccncc2)s1)C(=O)Nc1ccc(Cl)cc1 (centres undefined) . Its CC50 at 72 h was > 50 µM

Entry under test: CC(CSc1nnc(-c2ccncc2)s1)C(=O)NCc1ccccc1 (centres undefined) . Its CC50 at 72 h was > 50 µM

Entry under test: O=C(CSc1nnc(-c2ccncc2)s1)Nc1ccccc1Cl . Its CC50 at 72 h was > 50 µM

###

# Test system: Mycobacterium tuberculosis
# Protocol: Antimycobacterial activity against Mycobacterium tuberculosis H37Rv ATCC 27294 after 5 days by spectrophotometry
# Format: functional
# Condition notes: H37Rv ATCC 27294, 120 h
# if measured MIC50 < 1 µM: yes (1)  # else: no (0)

Consider the following illustrative entries.
CC(Sc1nnc(-c2ccncc2)s1)C(=O)Nc1ccc(Cl)cc1Cl (stereo not given) ... no (0)
O=C(CCSc1nnc(-c2ccncc2)s1)Nc1ccc(Cl)cc1 ... yes (1)
CC(Sc1nnc(-c2ccncc2)s1)C(=O)NCc1ccccc1Cl (stereo not given) ... no (0)
CC(CSc1nnc(-c2ccncc2)s1)C(=O)NCc1ccc(Cl)cc1 (stereo not given) ... no (0)

Input line: Consider NNC(=O)c1ccncc1 [ISONIAZID] . Does its MIC50 lie strictly below 1 µM?
Output line: yes (1)

Input line: Consider O=C(CCSc1nnc(-c2ccncc2)s1)NCc1ccccc1 . Does its MIC50 lie strictly below 1 µM?
Output line: yes (1)

Input line: Consider S=c1[nH]nc(-c2ccncc2)s1 . Does its MIC50 lie strictly below 1 µM?
Output line: yes (1)

Input line: Consider CC(CSc1nnc(-c2ccncc2)s1)C(=O)Nc1ccccc1 (stereo not given) . Does its MIC50 lie strictly below 1 µM?
Output line: no (0)

Input line: Consider CC(CSc1nnc(-c2ccncc2)s1)C(=O)NCc1ccccc1 (stereo not given) . Does its MIC50 lie strictly below 1 µM?
Output line: no (0)

Input line: Consider O=C(CSc1nnc(-c2ccncc2)s1)NCc1ccc(Cl)cc1 . Does its MIC50 lie strictly below 1 µM?
Output line: no (0)

###

# Protocol: Cytotoxicity against hamster BHK21 cells after 3 days
# Format: cell-based, Mesocricetus auratus, BHK-21
Reported CC50 at 72 h is given for each of the following molecules.

Recorded results for 3 molecules are shown here.
O=C(CSc1nnc(-c2ccncc2)s1)Nc1ccc(Cl)cc1 ... > 50 µM
CC(CSc1nnc(-c2ccncc2)s1)C(=O)Nc1ccc(Cl)cc1Cl (stereo unspecified) ... > 50 µM
CC(Sc1nnc(-c2ccncc2)s1)C(=O)NCc1ccccc1Cl (stereo unspecified) ... > 50 µM

Entry under test: O=C(CCSc1nnc(-c2ccncc2)s1)Nc1c(Cl)cccc1Cl . Its CC50 at 72 h was 10.3 µM

###

# Protocol: Cytotoxicity against human HepG2 cells after 3 days
# Assay type: cell-based
Observation type: CC50 at 72 h

CC(Sc1nnc(-c2ccncc2)s1)C(=O)Nc1ccccc1 (centres undefined) ... > 50 µM

Entry under test: O=C(CCSc1nnc(-c2ccncc2)s1)Nc1c(Cl)cccc1Cl . Its CC50 at 72 h was 12.6 µM

Entry under test: CC(CSc1nnc(-c2ccncc2)s1)C(=O)Nc1ccccc1 (centres undefined) . Its CC50 at 72 h was > 50 µM

Entry under test: CC(Sc1nnc(-c2ccncc2)s1)C(=O)Nc1ccccc1Cl (centres undefined) . Its CC50 at 72 h was > 50 µM

###

# Tested on: Mycobacterium tuberculosis
# Protocol: Antimycobacterial activity against Mycobacterium tuberculosis H37Rv ATCC 27294 after 5 days by spectrophotometry
# Format: functional
# Condition notes: H37Rv ATCC 27294, 120 h
Observation type: log10(MIC50) (log10 of the value in µM)
Form field - Quantity: MIC50; Unit: µM; Scale: log10

O=C(CCSc1nnc(-c2ccncc2)s1)NCc1ccc(Cl)cc1 ... -0.20
O=C(CCSc1nnc(-c2ccncc2)s1)Nc1c(Cl)cccc1Cl ... -0.23
O=C(CCSc1nnc(-c2ccncc2)s1)Nc1ccc(Cl)cc1Cl ... -0.26
CC(Sc1nnc(-c2ccncc2)s1)C(=O)Nc1ccccc1 (centres undefined) ... 0.17

Entry under test: O=C(CSc1nnc(-c2ccncc2)s1)NCc1ccccc1Cl . Its log10(MIC50) was 0.99

Entry under test: O=C(CSc1nnc(-c2ccncc2)s1)NCc1ccccc1 . Its log10(MIC50) was -0.72
